- Tested on: rodent lifetime carcinogenesis bioassay, tumor incidence TD50
- ASSAY_NAME: carcinogenic potency in animals, long-term in vivo studies, CPDB compilation (AID 1745844)
- PARTICULARS: rat; strain Charles River CD (Sprague-Dawley); males; in feed; site: liver; lesion: neoplastic nodule; dosed 142 weeks; study length 142 weeks
QUANTITY_MEASURED: TD50 (mg/kg/day)
Report only the number, with the unit mg/kg/day understood.

// returns reported TD50 for input Cc1ccccc1S(N)(=O)=O
35900

====

- Test system: rodent lifetime carcinogenesis bioassay, tumor incidence TD50
- ASSAY_NAME: carcinogenic potency in animals, long-term in vivo studies, CPDB compilation (AID 1745844)
- PARTICULARS: hamster; strain Syrian Golden; males; by gavage; site: forestomach; lesion: papilloma; dosed 35 weeks; study length 76 weeks
QUANTITY_MEASURED: TD50

// returns reported TD50 for input CC1CN(N=O)CC(C)N1N=O (stereo unspecified)
3.1 mg/kg/day
